Cited source: patent US20210309658A1

# maps each entry to its log10 of solubility thermodynamic
# assay_summary: Lyophilisation Solubility Assay (LYSA)
# Assay type: physicochemical
# test_conditions: aqueous buffer, thermodynamic from solid; 0.05 M phosphate buffer, pH 6.5; * = detection limit
quantity_kind: log10 of solubility thermodynamic (log10 of the value in µg/mL)

> print(dat)
                                   compound                      quantity.kind  recorded.result
1  CCNc1cc(F)cc2c1[nH]c1ncc(-c3cnc(NC4CCNCC4)nc3)c(-n3ccc(C(F)(F)F)n3)c12  log10 of solubility thermodynamic             0.88
2  CNc1cc(F)cc2c1[nH]c1ncc(-c3cnc(C4(C(=O)O)CC4)nc3)c(-n3ccc(C(F)(F)F)n3)c12  log10 of solubility thermodynamic             2.17
3  CCNc1cc(F)cc2c1[nH]c1ncc(-c3cncc(CN)c3)c(-n3ccc(C(F)(F)F)n3)c12  log10 of solubility thermodynamic             1.20
4  CCNc1cc(F)cc2c1[nH]c1ncc(-c3cnc(OC4CCNCC4)nc3)c(-n3ccc(C(F)(F)F)n3)c12  log10 of solubility thermodynamic             1.32
5  CCNc1cc(F)cc2c1[nH]c1ncc(-c3cnc(NCC(C)(C)C(=O)O)nc3)c(-n3ccc(C(F)(F)F)n3)c12  log10 of solubility thermodynamic             1.38
6  CNc1c(F)c(F)cc2c1[nH]c1ncc(-c3cncc(C#N)c3)c(-n3cc(CN)c(C(F)(F)F)n3)c12  log10 of solubility thermodynamic             1.15
7  CCNc1cc(F)cc2c1[nH]c1ncc(-c3cnc(NC4CCNC4)nc3)c(-n3ccc(C(F)(F)F)n3)c12 (stereo not shown)  log10 of solubility thermodynamic             0.92

###

# assay_summary: Cytotoxicity assay (HepG2, CellTiter-Blue)
# Format: cell-based
# test_conditions: human; HepG2 cells, 3 days treatment; * = detection limit
quantity_kind: CC50 at 3 days (µM)

> print(dat)
                                    compound   quantity.kind  recorded.result
 1  CCNc1cc(F)cc2c1[nH]c1ncc(-c3cnc(C4(C(=O)O)CC4)nc3)c(-n3ccc(C(F)(F)F)n3)c12  CC50 at 3 days             38.6
 2  CCNc1cc(F)cc2c1[nH]c1ncc(-c3cnc(NCC(C)(C)C(=O)O)nc3)c(-n3ccc(C(F)(F)F)n3)c12  CC50 at 3 days             27.6
 3  CCNc1cc(F)cc2c1[nH]c1ncc(-c3cnc(NC4CCNC4)nc3)c(-n3ccc(C(F)(F)F)n3)c12 (centres unmarked)  CC50 at 3 days             11.8
 4  CNc1cc(F)cc2c1[nH]c1ncc(-c3cnc(C4(C(=O)O)CC4)nc3)c(-n3ccc(C(F)(F)F)n3)c12  CC50 at 3 days             62.6
 5  CCNc1cc(F)cc2c1[nH]c1ncc(-c3cncc(C#N)c3)c(-n3nc(C(F)(F)F)c4c3CNC4)c12  CC50 at 3 days             14.1
 6  CCNc1cc(F)cc2c1[nH]c1ncc(-c3cnc(OC)nc3)c(-n3nc(C#N)c4c3CNCC4)c12  CC50 at 3 days               49
 7  CCNc1cc(F)cc2c1[nH]c1ncc(-c3cncc(C(=O)NOC)c3)c(-n3ccc(C(F)(F)F)n3)c12  CC50 at 3 days               13
 8  CCNc1cc(F)cc2c1[nH]c1ncc(-c3cnc(C(C)O)nc3)c(-n3ccc(C(F)(F)F)n3)c12 (centres unmarked)  CC50 at 3 days             12.4
 9  CCNc1cc(F)cc2c1[nH]c1ncc(-c3cnc(OCC(C)(C)C(=O)O)nc3)c(-n3ccc(C(F)(F)F)n3)c12  CC50 at 3 days             20.7
10  CCNc1cc(F)cc2c1[nH]c1ncc(-c3cncc(N)c3)c(-n3ccc(C(F)(F)F)n3)c12  CC50 at 3 days             11.1
11  CNc1cc(F)cc2c1[nH]c1ncc(-c3cncc(C#N)c3)c(-n3cc(CN)c(C(F)(F)F)n3)c12  CC50 at 3 days             13.3

###

# Tested on: E. coli (ATCC 25922)
# assay_summary: Minimal Inhibitory Concentration (MIC) assay
# Assay type: cell-based
# test_conditions: Escherichia coli, ATCC25922; CAMHB, 20 hours at 35° C.; read-out: MIC (μg/mL) E. coli ATCC 25922
quantity_kind: MIC (µg/mL)

> print(dat)
                                    molecule  unit.of.measurement  recorded.result
 1  CCNc1cc(F)cc2c1[nH]c1ncc(-c3cnc(OC)nc3)c(-n3ccc(C(F)(F)F)n3)c12 [Example 1.04]                µg/mL            0.552
 2  CCNc1cc(F)cc2c1[nH]c1ncc(-c3cncc(C(=O)NC4(COC)CC4)c3)c(-n3ccc(C(F)(F)F)n3)c12 [Example 3.07]                µg/mL            0.767
 3  CCNc1cc(F)cc2c1[nH]c1ncc(-c3cnc4cccnc4c3)c(-n3ccc(C(F)(F)F)n3)c12 [Example 1.11]                µg/mL            0.288
 4  CCNc1cc(F)cc2c1[nH]c1ncc(-c3cnc(NC4CCOC4)nc3)c(-n3ccc(C(F)(F)F)n3)c12 (centres unmarked) [Example 1.25]                µg/mL            0.751
 5  CCNc1cc(F)cc2c1[nH]c1ncc(-c3cncc(C#N)c3)c(-n3nc(C(F)(F)F)c4c3CNC4)c12 [Example 1.34]                µg/mL            0.727
 6  CCNc1cc(F)cc2c1[nH]c1ncc(-c3cnc(OC)nc3)c(-n3cc(CN)c(C(F)(F)F)n3)c12 [Example 1.27]                µg/mL            0.417
 7  CCNc1cc(F)cc2c1[nH]c1ncc(-c3cnc4ccnn4c3)c(-n3ccc(C(F)(F)F)n3)c12 [Example 1.19]                µg/mL            0.281
 8  CCNc1cc(F)cc2c1[nH]c1ncc(-c3cncc(C#N)c3)c(-n3ccc(C#N)n3)c12 [Example 1.05]                µg/mL            0.314
 9  CCNc1cc(F)cc2c1[nH]c1ncc(-c3cnc(C(C)O)nc3)c(-n3ccc(C(F)(F)F)n3)c12 (centres unmarked) [Example 1.54]                µg/mL            0.284
10  CNc1cc(F)cc2c1[nH]c1nc(Oc3cnc(C)nc3)nc(N3C[C@H]4C[C@@H]3C[C@H]4N)c12 [GP-6, reference compound]                µg/mL            0.127
11  CNc1cc(F)cc2c1[nH]c1ncc(-c3cncc(C#N)c3)c(-n3cc(C#N)cn3)c12 [Example 1.09]                µg/mL            0.153
12  CCNc1cc(F)cc2c1[nH]c1ncc(-c3cnc(N)nc3)c(-n3ccc(C(F)(F)F)n3)c12 [Example 1.06]                µg/mL            0.267
13  CCNc1cc(F)cc2c1[nH]c1ncc(-c3cncc(Cc4n[nH]c(=O)o4)c3)c(-n3ccc(C(F)(F)F)n3)c12 [Example 6.01]                µg/mL            0.731
14  CCNc1cc(F)c(F)c2c1[nH]c1ncc(-c3cnc(OC)nc3)c(-n3ccc(C(F)(F)F)n3)c12 [Example 1.29]                µg/mL            0.354
